Test system: Aspergillus niger
Experiment: Antifungal activity against Aspergillus niger assessed as reduction in fungal cell growth incubated for 72 hrs by broth microdilution method
Assay type: functional
Here, each record is paired with measured MIC data.

Quote MIC reported for CC(n1nnc(CCN2CCN(c3ccc([N+](=O)[O-])cc3)CC2)n1)C(O)(Cn1cncn1)c1ccc(F)cc1F (stereo not drawn) please. 1 to 16 µg/mL

----------
Here, each record is paired with measured MIC data.
Tested on: Candida parapsilosis
Test: Antifungal activity against Candida parapsilosis ATCC 22019 assessed as reduction in fungal cell growth incubated for 48 hrs by broth microdilution method
Format: functional
Conditions: Lodderomyces parapsilosis, ATCC 22019, 48 h

COMPOUND: OC(Cn1cncn1)(Cn1nnnc1CCN1CCN(c2ccccn2)CC1)c1ccc(F)cc1F (stereo not given)
VALUE_REPORTED: 0.5 to 16 µg/mL

Identify measured MIC obtained with Candida parapsilosis for C[C@H](n1nnnc1CCN1CCN(c2ccc(Cl)cc2)CC1)[C@](O)(Cn1cncn1)c1ccc(F)cc1F . 0.12 to 16 µg/mL

Identify measured MIC obtained with Candida parapsilosis for COc1ccccc1N1CCN(CCc2nnnn2C(C)C(O)(Cn2cncn2)c2ccc(F)cc2F)CC1 (stereo not given) . 0.5 to 16 µg/mL

Identify measured MIC obtained with Candida parapsilosis for CC(n1nnc(CCN2CCN(Cc3ccccc3)CC2)n1)C(O)(Cn1cncn1)c1ccc(F)cc1F (stereo not given) . 1 to 16 µg/mL

Identify measured MIC obtained with Candida parapsilosis for C[C@H](n1nnnc1CCN1CCN(c2ccc(F)cc2)CC1)[C@](O)(Cn1cncn1)c1ccc(F)cc1F . 0.12 to 16 µg/mL

----------
Here, each record is paired with measured MIC data.
System: Candida tropicalis
Test: Antifungal activity against Candida tropicalis assessed as reduction in fungal cell growth incubated for 48 hrs by broth microdilution method
Format: functional

Below, each entry is followed by its recorded MIC result.
COMPOUND: COc1ccc(N2CCN(CCc3nnn(C(C)C(O)(Cn4cncn4)c4ccc(F)cc4F)n3)CC2)cc1 (configuration not stated)
TARGET_SYSTEM: Candida tropicalis
VALUE_REPORTED: 1 to 16 µg/mL

COMPOUND: CC(n1nnc(CCN2CCN(c3ccccc3Cl)CC2)n1)C(O)(Cn1cncn1)c1ccc(F)cc1F (configuration not stated)
TARGET_SYSTEM: Candida tropicalis
VALUE_REPORTED: 1 to 16 µg/mL

COMPOUND: COc1ccc(N2CCN(CCc3nnn(CC(O)(Cn4cncn4)c4ccc(F)cc4F)n3)CC2)cc1 (configuration not stated)
TARGET_SYSTEM: Candida tropicalis
VALUE_REPORTED: 1 to 16 µg/mL

COMPOUND: OC(Cn1cncn1)(Cn1nnc(CCN2CCN(c3cccc(C(F)(F)F)c3)CC2)n1)c1ccc(F)cc1F (configuration not stated)
TARGET_SYSTEM: Candida tropicalis
VALUE_REPORTED: 1 to 16 µg/mL

COMPOUND: OC(Cn1cncn1)(Cn1nnnc1CCN1CCN(c2ccccc2)CC1)c1ccc(F)cc1F (configuration not stated)
TARGET_SYSTEM: Candida tropicalis
VALUE_REPORTED: 0.5 to 16 µg/mL

Quote MIC reported for C[C@H](n1nnc(CCN2CCN(c3ccc(Cl)cc3)CC2)n1)[C@](O)(Cn1cncn1)c1ccc(F)cc1F please. 0.25 to 16 µg/mL

Quote MIC reported for COc1ccccc1N1CCN(CCc2nnn(C(C)C(O)(Cn3cncn3)c3ccc(F)cc3F)n2)CC1 (configuration not stated) please. 1 to 16 µg/mL

Quote MIC reported for OC(Cn1cncn1)(Cn1nnc(CCN2CCN(c3cccc(Cl)c3)CC2)n1)c1ccc(F)cc1F (configuration not stated) please. 1 to 16 µg/mL
